# credit: patent US7351711B2

Molecular target: human purified αVβ5 (Homo sapiens, UniProt P06756+P18084)
Sequence (P06756 31-889 limits assumed): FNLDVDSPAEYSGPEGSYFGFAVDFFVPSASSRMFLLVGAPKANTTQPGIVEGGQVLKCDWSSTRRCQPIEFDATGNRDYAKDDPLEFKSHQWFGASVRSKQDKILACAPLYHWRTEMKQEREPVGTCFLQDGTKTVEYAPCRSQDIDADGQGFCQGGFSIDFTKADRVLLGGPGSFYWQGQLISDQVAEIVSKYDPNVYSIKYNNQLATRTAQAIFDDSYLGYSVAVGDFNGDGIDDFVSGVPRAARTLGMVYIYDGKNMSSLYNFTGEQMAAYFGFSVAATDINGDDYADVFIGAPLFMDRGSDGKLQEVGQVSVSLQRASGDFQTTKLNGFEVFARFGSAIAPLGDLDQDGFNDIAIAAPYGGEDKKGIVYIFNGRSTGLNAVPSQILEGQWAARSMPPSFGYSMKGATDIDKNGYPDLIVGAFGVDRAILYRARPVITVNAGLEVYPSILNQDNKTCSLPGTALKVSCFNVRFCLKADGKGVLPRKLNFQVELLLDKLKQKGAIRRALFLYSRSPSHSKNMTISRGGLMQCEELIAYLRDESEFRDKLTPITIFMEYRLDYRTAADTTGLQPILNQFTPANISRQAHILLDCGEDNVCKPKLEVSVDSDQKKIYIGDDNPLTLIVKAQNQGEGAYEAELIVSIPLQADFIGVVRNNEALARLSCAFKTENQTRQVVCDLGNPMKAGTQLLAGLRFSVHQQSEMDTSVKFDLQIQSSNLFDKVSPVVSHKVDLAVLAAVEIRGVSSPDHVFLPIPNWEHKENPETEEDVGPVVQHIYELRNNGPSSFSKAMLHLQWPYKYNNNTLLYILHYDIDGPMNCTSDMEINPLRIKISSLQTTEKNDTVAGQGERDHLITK
Sequence (P06756 891-1048 partner limits assumed): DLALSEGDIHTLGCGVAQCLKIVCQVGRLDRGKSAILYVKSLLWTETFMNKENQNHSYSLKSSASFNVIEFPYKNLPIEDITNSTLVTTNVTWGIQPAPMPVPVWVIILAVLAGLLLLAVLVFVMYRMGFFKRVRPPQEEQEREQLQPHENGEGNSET
Sequence (P18084 24-799): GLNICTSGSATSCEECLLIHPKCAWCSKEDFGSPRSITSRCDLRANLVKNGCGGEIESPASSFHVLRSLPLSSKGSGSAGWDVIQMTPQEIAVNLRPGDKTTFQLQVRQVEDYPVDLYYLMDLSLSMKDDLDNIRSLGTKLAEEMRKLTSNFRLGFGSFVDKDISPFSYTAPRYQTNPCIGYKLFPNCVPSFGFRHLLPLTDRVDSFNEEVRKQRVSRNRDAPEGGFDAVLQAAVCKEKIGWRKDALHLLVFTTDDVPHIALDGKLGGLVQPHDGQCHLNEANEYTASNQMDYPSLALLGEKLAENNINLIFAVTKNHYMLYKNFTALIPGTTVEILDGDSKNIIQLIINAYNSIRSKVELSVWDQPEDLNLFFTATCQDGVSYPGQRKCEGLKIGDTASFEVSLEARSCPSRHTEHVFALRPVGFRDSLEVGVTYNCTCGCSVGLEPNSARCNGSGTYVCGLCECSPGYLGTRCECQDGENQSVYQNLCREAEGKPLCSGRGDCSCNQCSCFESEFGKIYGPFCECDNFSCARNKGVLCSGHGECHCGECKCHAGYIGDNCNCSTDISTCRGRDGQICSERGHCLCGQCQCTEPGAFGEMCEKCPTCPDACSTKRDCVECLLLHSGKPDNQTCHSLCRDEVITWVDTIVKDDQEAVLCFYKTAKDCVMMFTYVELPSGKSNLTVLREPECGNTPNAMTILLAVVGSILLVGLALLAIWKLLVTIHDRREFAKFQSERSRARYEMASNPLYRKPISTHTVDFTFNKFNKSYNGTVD
Assay: In vitro solid phase purified αvβ5 binding assay (vitronectin/αVβ5)
Settings: inhibition of vitronectin binding to immobilized αVβ5; read-out: Antagonist IC50 Activity αVβ5
Observable: pIC50
On this scale, pIC50 is minus log10 of a concentration expressed in M (mol/L).

{"columns": ["Compound", "pIC50"],
 "data": [
  ["O=C(O)CC1c2ccccc2C2CN(C(=O)CCc3ccc4c(n3)NCCC4)CCC12 (racemic)", 6.72],
  ["O=C(O)C[C@@H]1c2ccccc2[C@@H]2CN(C(=O)Cc3cccc(NC4=NCCCN4)c3)CC[C@H]12 (single isomer, unassigned)", 5.99]
]}

Alright, here's another compound for you.
The compound O=C(O)C[C@H]1c2ccccc2[C@@H]2CN(C(=O)Cc3cccc(NC4=NCCCN4)c3)CC[C@H]12 (single isomer, unassigned) showed pIC50 equal to 6.66
